# System: K4 kissing-loop RNA reporter;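 further: bound reporter read as fluorescence of individual clusters on recovered sequencing chips by microscopy, with normalized cluster intensities fitted with a binding model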
# ASSAY PROTOCOL: apparent KD of K4 kissing-loop reporter; higher = weaker reporter binding
# CONDITION SET: Eterna round: R107; input ligand: theophylline 20 uM
Label n if apparent KD of K4 kissing-loop reporter falls below 200 nM; label y in every other case.

- SEQ TEXT: "UGGACCUGACUCGAUAAGAGUCAAUGAGAUACCAGUGACGAAAGUCACCCUUGGCAGCUCCUGCCAGUGAUGUUGGUAAGGUCCU [#SwitchBubble 4 #StaticStem]"
  CLASS ASSIGNMENT: "y"
- SEQ TEXT: "UAUGAAGGUGGAGGAUAUUGAUUGAACCUUGGUCAGGAGUGAUGUUCCGGGAAGCCUUGGGUUCAUCGAGAAGGCCAAGGAUAGU [Extra 2]"
  CLASS ASSIGNMENT: "y"
- SEQ TEXT: "AAUAAAAUCACGGCCGCCACUGAUUAUUUUAUUAGGAGUGAUGUUCCUAUGACAAUAUACCUUAACAGGACCGGGUGAAUAUUUA [JR_ExcTryptoB_Sub010]"
  CLASS ASSIGNMENT: "n"
- SEQ TEXT: "UGUACUAUUGUGAGUGAUGUUCACUUCGAUACCAGCAGAGCGAUCUGCCCUUGGCAGCGAGUUAACUGCCGAAAGGCAAGGAUUA [Theo B SS t9]"
  CLASS ASSIGNMENT: "y"
- SEQ TEXT: "AGACUUCACCGAAGGAGCGACGUAGCCUAGUGAUGUUAGGCACGAGAGAAAUCUCGUAUACGUCAGGUAGGUCGCGGUGAAGUCA [Omei KL Arginine B SS C v1]"
  CLASS ASSIGNMENT: "n"
- SEQ TEXT: "AGGGCGGAGUGAUGUUCCGGCUCCCGAUUUAAGGAUAUUGCGUAAACAAGAAGGUAAAGGCGCAGCAAUAUUAUUUCGUAAGGCG [theeternabot_exclusion_KL_FMN_A_23]"
  CLASS ASSIGNMENT: "n"
- SEQ TEXT: "AUCCAUAGUGAUGUUGUGAGCGGAGGCACCAAGGAUAUUGCCAGCCCAAGAAGGUGGGUCCCACACACCAGGCAUACAAGUCCGG [theeternabot_exclusion_KL_FMN_A_43]"
  CLASS ASSIGNMENT: "y"
- SEQ TEXT: "AAUAAAAUCACGGCCGCCACUGAAUAAUUACAAAGUAGUGAUGUUACUUUACAUAUCUUAUUUAACAGGACCGGGUGAAUAUUUA [JR_ExcTryptoB_Sub007]"
  CLASS ASSIGNMENT: "n"
- SEQ TEXT: "GCAUCAUGCUACGAUACCAGAAGUUCCCUUUAGUGUAGUGAUGUUGCAGAUAUUGCUUACUUCCCUUGGCAGCGUUUGACGGGUA [theeternabot_sameState_KL_Theo_B_35]"
  CLASS ASSIGNMENT: "y"
- SEQ TEXT: "CAUACGCAUGGAGGAUAUGAGAUUACUCGUAUCAUUUAAUAUUCUCAGUGAUGUUGAGAUUUGGGCUCAGAAGGCCAUGUGUAUG [Ex FMN B 16]"
  CLASS ASSIGNMENT: "y"
- SEQ TEXT: "GCAACAUUGGCAGGAUAUCAUUCUGAGUGAUGUUCAGGGUUCAGCUAACGAAAGUUAGUUGUACCAUGAGAAGGGCUAAUGUUGC [Omei KL FMN B SS A v1]"
  CLASS ASSIGNMENT: "y"
- SEQ TEXT: "UUUGUAUAGGGAAGGAGCGUGAAUGAUAAUGAAUAUAGUGAUGUUAUAUAUAAGAAAGAAUCACAGGUAGGUCGCCCGGAUGAGU [SSArgB.L]"
  CLASS ASSIGNMENT: "y"
